Target: T1, human RANKL protein (Sino Biological, 11682-HNCH) (human, UniProt O14788 136-317, limits assumed)
T1 construct: Bought protein
T1 sequence (looked up): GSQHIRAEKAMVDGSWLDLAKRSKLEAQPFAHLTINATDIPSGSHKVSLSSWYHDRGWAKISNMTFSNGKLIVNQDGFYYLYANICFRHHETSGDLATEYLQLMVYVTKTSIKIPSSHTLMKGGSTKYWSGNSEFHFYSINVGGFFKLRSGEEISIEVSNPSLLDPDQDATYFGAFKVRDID
Assay: SPR (Biacore), antibody captured on Protein A chip, RANKL in flow, 1:1 fit
Ratio of affinities (fold increase in affinity relative to denosumab) strictly under 0.5 fold means T; at 0.5 fold or over means F.

Some solved cases for reference:
4-64L (antibody, V domains shown, Variable regions fused to human constant regions) VH: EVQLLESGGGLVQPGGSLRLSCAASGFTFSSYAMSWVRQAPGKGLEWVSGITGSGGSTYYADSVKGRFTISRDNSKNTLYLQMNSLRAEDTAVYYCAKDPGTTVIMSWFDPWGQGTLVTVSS VL: EIVLTQSPGTLSLSPGERATLSCRASQSVRGRYLAWYQQKPGQAPRLLIYGASSRATGIPDRFSGSGSGTDFTLTISRLEPEDFAVFYCQQYGSSPRIFGQGTKVEIK : F
3-20L (antibody, IgG4, V domains shown, Variable regions fused to human constant regions) VH: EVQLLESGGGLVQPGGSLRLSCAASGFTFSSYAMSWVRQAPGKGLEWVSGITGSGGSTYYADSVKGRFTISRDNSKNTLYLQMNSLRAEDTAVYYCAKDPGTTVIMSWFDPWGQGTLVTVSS VL: EIVLTQSPGTLSLSPGERATLSCRASQAIRGPNLAWYQQKPGQAPRLLIYDTSSRATGIPDRFSGSGSGTDFTLTISRLEPEDFAVFYCQQYGSSPRTFGQGTKVEIK : F
5-51H (antibody, V domains shown, Variable regions fused to human constant regions) VH: EVQLLESGGGLVQPGGSLRLSCAASGFTFSSYAMSWVRQAPGKGLEWVSGITGSGGSTYYADSVKGRFTISRDNSKNTLYLQMNSLRAEDTAVYYCAKDPCFSYIMSWFDPWGQGTLVTVSS VL: EIVLTQSPGTLSLSPGERATLSCRASQSVRGRYLAWYQQKPGQAPRLLIYGASSRATGIPDRFSGSGSGTDFTLTISRLEPEDFAVFYCQQYGSSPRTFGQGTKVEIK : T
5-16H (antibody, V domains shown, Variable regions fused to human constant regions) VH: EVQLLESGGGLVQPGGSLRLSCAASGFTFSSYAMSWVRQAPGKGLEWVSGITGSGGSTYYADSVKGRFTISRDNSKNTLYLQMNSLRAEDTAVYYCAKDPASIVIMSWFDPWGQGTLVTVSS VL: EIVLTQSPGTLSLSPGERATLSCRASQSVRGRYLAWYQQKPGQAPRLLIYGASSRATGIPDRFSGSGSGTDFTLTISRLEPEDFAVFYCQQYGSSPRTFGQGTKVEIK : F
2-79L (antibody, V domains shown, Variable regions fused to human constant regions) VH: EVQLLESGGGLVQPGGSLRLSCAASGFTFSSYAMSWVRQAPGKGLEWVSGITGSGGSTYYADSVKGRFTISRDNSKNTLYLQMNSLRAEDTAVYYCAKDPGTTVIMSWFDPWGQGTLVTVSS VL: EIVLTQSPGTLSLSPGERATLSCRASQSVRGRYLAWYQQKPGQAPRLLIYGSSSRATGIPDRFSGSGSGTDFTLTISRLEPEDFAVFYCQQYGSSPRTFGQGTKVEIK : F

// next entry
q: Does the reported Ratio of affinities (fold increase in affinity relative to denosumab) of the following binder sit strictly below 0.5 fold? 2-87L (antibody, IgG4, V domains shown, Variable regions fused to human constant regions) VH: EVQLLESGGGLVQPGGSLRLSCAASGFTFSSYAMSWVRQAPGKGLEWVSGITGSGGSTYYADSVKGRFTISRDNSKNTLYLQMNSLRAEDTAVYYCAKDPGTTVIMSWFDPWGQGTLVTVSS VL: EIVLTQSPGTLSLSPGERATLSCRASQYLPFHRLAWYQQKPGQAPRLLIYDTSSRATGIPDRFSGSGSGTDFTLTISRLEPEDFAVFYCQQYGSSPRTFGQGTKVEIK
a: T
